- Experiment description: Pharmacokinetic studies of certain compounds in female Balb/c mice (Example 5)
- Type: in vivo
- Applied conditions: mouse, plasma, I-8 PO 50 mg/kg
Experimental readout: MRT inf (h)
Record the value in h, omitting the unit from your answer.

### Prompt # get_value(readout='MRT inf', item= `CC(C)Cc1sc(Nc2ncc(-c3cccs3)cc2C(=O)O)nc1C1=CCCC1` )
### Response 3.03

###

- Experiment description: Pharmacokinetic study of I-11 in female BALB/c mice (Example 4)
- Type: in vivo, Balb/c mouse
- Applied conditions: female, BALB/c, mouse, plasma, po, 50 mg/kg, PO 50 mg/kg, 4 hr, read-out: Plasma concentration Mean
Experimental readout: concentration at 4 hr (ng/mL)
Record the value in ng/mL, omitting the unit from your answer.

### Prompt # get_value(readout='concentration at 4 hr', item= `CC(C)Cc1sc(Nc2ncc(-c3cccs3)cc2C(=O)O)nc1C(C)(C)C` )
### Response 1730

###

- Experiment description: Pharmacokinetic study of I-11 in female BALB/c mice (Example 4)
- Assay type: in vivo, Balb/c mouse
- Applied conditions: mouse, plasma, IV 5 mg/kg
Experimental readout: MRT inf (min)
Record the value in min, omitting the unit from your answer.

### Prompt # get_value(readout='MRT inf', item= `CC(C)Cc1sc(Nc2ncc(-c3cccs3)cc2C(=O)O)nc1C(C)(C)C` )
### Response 43.8

###

- Experiment description: Pharmacokinetic study of I-11 in female BALB/c mice (Example 4)
- Format: in vivo, Balb/c mouse
- Applied conditions: female, BALB/c, mouse, plasma, iv, 5 mg/kg, IV 5 mg/kg, 0.5 hr, read-out: Plasma concentration Individual
Experimental readout: concentration at 0.5 hr (ng/mL)
Record the value in ng/mL, omitting the unit from your answer.

### Prompt # get_value(readout='concentration at 0.5 hr', item= CC(C)Cc1sc(Nc2ncc(-c3cccs3)cc2C(=O)O)nc1C(C)(C)C [Compound I-11] )
### Response 2710

###

- Experiment description: Pharmacokinetic studies of certain compounds in female Balb/c mice (Example 5)
- Format: in vivo
- Applied conditions: female, Balb/c, mouse, plasma, po, 23.8 mg/kg, I-29 PO 23.8 mg/kg, 1 hr, read-out: Plasma concentration Mean
Experimental readout: concentration at 1 hr (ng/mL)
Record the value in ng/mL, omitting the unit from your answer.

### Prompt # get_value(readout='concentration at 1 hr', item= `CC(C)Cc1sc(Nc2ncc(-c3cccs3)cc2C(=O)O)nc1C1CCC(F)(F)CC1` )
### Response 519

###

- Experiment description: Pharmacokinetic studies of certain compounds in female Balb/c mice (Example 5)
- Type: in vivo
- Applied conditions: female, Balb/c, mouse, plasma, iv, 1 mg/kg, I-27 IV 1 mg/kg, 0.083 hr, read-out: Plasma concentration Individual
Experimental readout: concentration at 0.083 h (ng/mL)
Record the value in ng/mL, omitting the unit from your answer.

### Prompt # get_value(readout='concentration at 0.083 h', item= CC(C)Cc1sc(Nc2ncc(-c3cccs3)cc2C(=O)O)nc1C1(C)CCCCC1 [Compound I-27] )
### Response 4410

###

- Experiment description: Pharmacokinetic studies of certain compounds in female Balb/c mice (Example 5)
- Format: in vivo
- Applied conditions: female, Balb/c, mouse, plasma, po, 30 mg/kg, I-3 PO 30 mg/kg, 0.083 hr, read-out: Plasma concentration Individual
Experimental readout: concentration at 0.083 hr (ng/mL)
Record the value in ng/mL, omitting the unit from your answer.

### Prompt # get_value(readout='concentration at 0.083 hr', item= `CC(C)Cc1sc(Nc2ncc(-c3cccs3)cc2C(=O)O)nc1C1CCCCC1` )
### Response 56.7

###

- Experiment description: Pharmacokinetic studies of certain compounds in female Balb/c mice (Example 5)
- Assay type: in vivo
- Applied conditions: female, Balb/c, mouse, plasma, po, 100 mg/kg, I-2 PO 100 mg/kg, 1 hr, read-out: Plasma concentration Individual
Experimental readout: concentration at 1 h (ng/mL)
Record the value in ng/mL, omitting the unit from your answer.

### Prompt # get_value(readout='concentration at 1 h', item= `CC(C)Cc1sc(Nc2ncc(-c3cccs3)cc2C(=O)O)nc1C1=CCCCC1` )
### Response 4550

###

- Experiment description: Pharmacokinetic study of I-11 in female BALB/c mice (Example 4)
- Format: in vivo, Balb/c mouse
- Applied conditions: female, BALB/c, mouse, plasma, po, 100 mg/kg, PO 100 mg/kg, 0.25 hr, read-out: Plasma concentration Individual
Experimental readout: concentration at 0.25 hr (ng/mL)
Record the value in ng/mL, omitting the unit from your answer.

### Prompt # get_value(readout='concentration at 0.25 hr', item= `CC(C)Cc1sc(Nc2ncc(-c3cccs3)cc2C(=O)O)nc1C(C)(C)C` )
### Response 2690

###

- Experiment description: Pharmacokinetic studies of certain compounds in female Balb/c mice (Example 5)
- Assay type: in vivo
- Applied conditions: female, Balb/c, mouse, plasma, po, 30 mg/kg, I-27 PO 30 mg/kg, 2 hr, read-out: Plasma concentration Mean
Experimental readout: concentration at 2 h
Note: state the figure and append the unit.

### Prompt # get_value(readout='concentration at 2 h', item= `CC(C)Cc1sc(Nc2ncc(-c3cccs3)cc2C(=O)O)nc1C1(C)CCCCC1` )
### Response 2280 ng/mL

###

- Experiment description: Pharmacokinetic studies of certain compounds in female Balb/c mice (Example 5)
- Assay type: in vivo
- Applied conditions: female, BALB/c, mouse, plasma, po, 30 mg/kg, I-2 PO 30 mg/kg, 4 hr, read-out: Plasma concentration Mean
Experimental readout: concentration at 4 hr
Note: state the figure and append the unit.

### Prompt # get_value(readout='concentration at 4 hr', item= `CC(C)Cc1sc(Nc2ncc(-c3cccs3)cc2C(=O)O)nc1C1=CCCCC1` )
### Response 1.51 µg/mL

###

- Experiment description: Pharmacokinetic studies of certain compounds in female Balb/c mice (Example 5)
- Type: in vivo
- Applied conditions: mouse, plasma, I-29 PO 23.8 mg/kg
Experimental readout: MRT last (h)
Record the value in h, omitting the unit from your answer.

### Prompt # get_value(readout='MRT last', item= `CC(C)Cc1sc(Nc2ncc(-c3cccs3)cc2C(=O)O)nc1C1CCC(F)(F)CC1` )
### Response 2.64

###

- Experiment description: Pharmacokinetic studies of certain compounds in female Balb/c mice (Example 5)
- Assay type: in vivo
- Applied conditions: female, Balb/c, mouse, plasma, iv, 1 mg/kg, I-27 IV 1 mg/kg, 2 hr, read-out: Plasma concentration Individual
Experimental readout: concentration at 2 hr (µg/mL)
Record the value in µg/mL, omitting the unit from your answer.

### Prompt # get_value(readout='concentration at 2 hr', item= `CC(C)Cc1sc(Nc2ncc(-c3cccs3)cc2C(=O)O)nc1C1(C)CCCCC1` )
### Response 0.142

###

- Experiment description: Pharmacokinetic study of I-11 in female BALB/c mice (Example 4)
- Assay type: in vivo, Balb/c mouse
- Applied conditions: mouse, plasma, IV 5 mg/kg
Experimental readout: MRT last
Note: state the figure and append the unit.

### Prompt # get_value(readout='MRT last', item= `CC(C)Cc1sc(Nc2ncc(-c3cccs3)cc2C(=O)O)nc1C(C)(C)C` )
### Response 35.6 min

###

- Experiment description: Pharmacokinetic studies of certain compounds in female Balb/c mice (Example 5)
- Assay type: in vivo
- Applied conditions: mouse, plasma, I-2 PO 30 mg/kg
Experimental readout: MRT inf (h)
Record the value in h, omitting the unit from your answer.

### Prompt # get_value(readout='MRT inf', item= `CC(C)Cc1sc(Nc2ncc(-c3cccs3)cc2C(=O)O)nc1C1=CCCCC1` )
### Response 3.85

###

- Experiment description: Pharmacokinetic studies of certain compounds in female Balb/c mice (Example 5)
- Type: in vivo
- Applied conditions: female, Balb/c, mouse, plasma, po, 30 mg/kg, I-2 PO 30 mg/kg, 0.25 hr, read-out: Plasma concentration Individual
Experimental readout: concentration at 0.25 h (ng/mL)
Record the value in ng/mL, omitting the unit from your answer.

### Prompt # get_value(readout='concentration at 0.25 h', item= `CC(C)Cc1sc(Nc2ncc(-c3cccs3)cc2C(=O)O)nc1C1=CCCCC1` )
### Response 472

###

- Experiment description: Pharmacokinetic study of I-11 in female BALB/c mice (Example 4)
- Format: in vivo, Balb/c mouse
- Applied conditions: mouse, plasma, IV 5 mg/kg
Experimental readout: half-life (h)
Record the value in h, omitting the unit from your answer.

### Prompt # get_value(readout='half-life', item= `CC(C)Cc1sc(Nc2ncc(-c3cccs3)cc2C(=O)O)nc1C(C)(C)C` )
### Response 2.28

###

- Experiment description: Pharmacokinetic studies of certain compounds in female Balb/c mice (Example 5)
- Format: in vivo
- Applied conditions: mouse, plasma, I-8 IV 1 mg/kg
Experimental readout: MRT last (min)
Record the value in min, omitting the unit from your answer.

### Prompt # get_value(readout='MRT last', item= `CC(C)Cc1sc(Nc2ncc(-c3cccs3)cc2C(=O)O)nc1C1=CCCC1` )
### Response 23.2

Cited source for all entries: patent US20240208961A1
